- Test system: NCI-H322M lung
- protocol_notes: NCI-60 one-dose screen, 48 h (100 = growth as untreated, 0 = no growth, -100 = all killed)
- setup_conditions: 10 µM unless noted
About 83,000 compounds went through this panel and 20% of them were active in at least one assay; those are over-represented in the sample as a whole.
Known growth of a selection of compounds
recorded_metric: growth (%)

compound=Cn1c(SCC(=O)Nc2ccc(-c3nc4ccc([N+](=O)[O-])cc4[nH]3)cc2)nc2ccccc2c1=O measured_target="NCI-H322M lung" units_of_measure=% readout_value=68.6
compound="CCN1C(=S)N(CC)C2C1NN=C1SC(c3ccccc3)=CC(=O)N12 (centres undefined)" measured_target="NCI-H322M lung" units_of_measure=% readout_value=110
compound=c1ccc2c(NCCCn3ccnc3)c3oc4ccccc4c3nc2c1 measured_target="NCI-H322M lung" units_of_measure=% readout_value=-13.4
compound=N#Cc1nc(-c2ccccc2)oc1S(=O)(=O)N1CCCCC1 measured_target="NCI-H322M lung" units_of_measure=% readout_value=104
